- system: T1, Human NKp46 His tag (Acro Biosystems, NC1-H52H4) (human, UniProt O76036 22-255)
- T1 construct: bought; also called human NKp46-his tagged protein
- T1 sequence (O76036 22-255 limits assumed): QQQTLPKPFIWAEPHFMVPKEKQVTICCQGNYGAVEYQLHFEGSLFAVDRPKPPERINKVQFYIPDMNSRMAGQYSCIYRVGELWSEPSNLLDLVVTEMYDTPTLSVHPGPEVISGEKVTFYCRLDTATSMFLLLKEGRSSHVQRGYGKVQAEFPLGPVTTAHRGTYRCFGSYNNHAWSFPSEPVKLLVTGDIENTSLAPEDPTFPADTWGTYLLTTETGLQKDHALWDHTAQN
- assay_overview: FP competition vs BCY15035
- Procedure: The untagged competitor peptides were diluted in assay buffer 25 mM HEPES, 100 mM NaCl, 0.01% P20, pH 7.4. to a top concentration of 5000 nM and diluted 2-fold in 11 steps. The human NKp46-his tagged protein (AcroBiosystems) was diluted to 40 nM final concentration in the assay. […] The total volume of 25 μL was prepared in black walled and flat-bottomed low binding low volume 384 well plates. […]
Numbered stars: 1 amine (or outer) side, 2 acyl side, 3 side chain; on linkers, the order of the positions; unused ones are H or OH. Bridge positions count the residues as written; N and C are the ends. Square brackets hold non-standard residues; d marks the D form. Ends that are not written are not given here. 4MeOPhe = 4-methoxy-phenylalanine, COc1ccc(C[C@H](N[*:1])C(=O)[*:2])cc1; TATA = O=C(CC[*:1])N1CN(C(=O)CC[*:2])CN(C(=O)CC[*:3])C1; Phe(4-Cl) = N[C@@H](Cc1ccc(Cl)cc1)C(=O)O; 1Nal = N[C@@H](Cc1cccc2ccccc12)C(=O)O
experimental_readout: pKi
Just the number, please; pKi means minus log10 of the concentration in mol/L.

Look over these answered cases.
binder | pKi
ACYLPD[1Nal]LCGDEYCA-NH2 (linker 2-9-14 via TATA; N-terminus assumed; SMILES CC(C)C[C@@H]1NC(=O)[C@H](Cc2cccc3ccccc23)NC(=O)[C@H](CC(=O)O)NC(=O)[C@@H]2CCCN2C(=O)[C@H](CC(C)C)NC(=O)[C@H](Cc2ccc(O)cc2)NC(=O)[C@@H](NC(=O)[C@H](C)N)CSCCC(=O)N2CN3CN(C2)C(=O)CCSC[C@@H](C(=O)N[C@@H](C)C(N)=O)NC(=O)[C@H](Cc2ccc(O)cc2)NC(=O)[C@H](CCC(=O)O)NC(=O)[C@H](CC(=O)O)NC(=O)CNC(=O)[C@H](CSCCC3=O)NC1=O, scaffold TATA) [BCY15643] | 6.12
ACYLPD[Phe(4-Cl)]LCGDEYCA-NH2 (linker 2-9-14 via TATA; N-terminus assumed; SMILES CC(C)C[C@@H]1NC(=O)[C@H](Cc2ccc(Cl)cc2)NC(=O)[C@H](CC(=O)O)NC(=O)[C@@H]2CCCN2C(=O)[C@H](CC(C)C)NC(=O)[C@H](Cc2ccc(O)cc2)NC(=O)[C@@H](NC(=O)[C@H](C)N)CSCCC(=O)N2CN3CN(C2)C(=O)CCSC[C@@H](C(=O)N[C@@H](C)C(N)=O)NC(=O)[C@H](Cc2ccc(O)cc2)NC(=O)[C@H](CCC(=O)O)NC(=O)[C@H](CC(=O)O)NC(=O)CNC(=O)[C@H](CSCCC3=O)NC1=O, scaffold TATA) [BCY16144] | 6.14
CYLPDYLCGDEYC-NH2 (linker 1-8-13 via TATA; also: scaffold TATA, TATB or TBMT, scaffold TATA) [BCY15633] | 7.07
ACYLPDYLCADEYCA-NH2 (linker 2-9-14 via TATA; also: cyclised with TATA, TATB or TBMT, scaffold TATA) [BCY15659] | 6.65

// moving on: another record for pKi
Q) Reported pKi for ACYLPD[4MeOPhe]LCGDEYCA-NH2 (linker 2-9-14 via TATA; N-terminus assumed; SMILES COc1ccc(C[C@@H]2NC(=O)[C@H](CC(=O)O)NC(=O)[C@@H]3CCCN3C(=O)[C@H](CC(C)C)NC(=O)[C@H](Cc3ccc(O)cc3)NC(=O)[C@@H](NC(=O)[C@H](C)N)CSCCC(=O)N3CN4CN(C3)C(=O)CCSC[C@@H](C(=O)N[C@@H](C)C(N)=O)NC(=O)[C@H](Cc3ccc(O)cc3)NC(=O)[C@H](CCC(=O)O)NC(=O)[C@H](CC(=O)O)NC(=O)CNC(=O)[C@H](CSCCC4=O)NC(=O)[C@H](CC(C)C)NC2=O)cc1, scaffold TATA) [BCY16136] : what is it?
A) 6.57
